Source of measurements: patent US20200147235A1

# target system: T1, Human CD98 expressed on stably transfected CHO-K1 cells (human)
# T1 construct: also called huCD98; CD98 heavy chain
# T1 chain: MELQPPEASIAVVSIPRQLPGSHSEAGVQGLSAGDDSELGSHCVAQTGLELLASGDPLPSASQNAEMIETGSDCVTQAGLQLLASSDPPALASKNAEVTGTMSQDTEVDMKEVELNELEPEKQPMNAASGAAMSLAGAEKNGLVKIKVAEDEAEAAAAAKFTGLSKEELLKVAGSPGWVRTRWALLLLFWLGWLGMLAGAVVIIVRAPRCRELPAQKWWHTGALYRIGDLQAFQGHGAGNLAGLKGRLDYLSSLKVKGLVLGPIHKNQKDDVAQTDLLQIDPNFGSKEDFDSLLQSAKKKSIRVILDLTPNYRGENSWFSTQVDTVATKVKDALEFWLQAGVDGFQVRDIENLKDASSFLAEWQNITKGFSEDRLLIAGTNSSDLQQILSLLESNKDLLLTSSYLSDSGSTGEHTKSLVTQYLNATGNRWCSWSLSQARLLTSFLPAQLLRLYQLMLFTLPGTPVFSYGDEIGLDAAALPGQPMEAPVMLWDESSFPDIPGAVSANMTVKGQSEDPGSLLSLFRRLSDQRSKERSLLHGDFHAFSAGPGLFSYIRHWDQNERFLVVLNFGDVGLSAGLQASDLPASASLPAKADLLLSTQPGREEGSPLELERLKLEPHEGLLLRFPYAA
# protocol description: flow cytometry, CHO-K1 cells expressing human CD98
Listed here: items and their measured EC50.
reported property: EC50 (nM)

[
  {
    "binder": "Recombinant anti-CD98 chimeric antibody chAb10 (antibody, human IgG1, V domains shown) VH: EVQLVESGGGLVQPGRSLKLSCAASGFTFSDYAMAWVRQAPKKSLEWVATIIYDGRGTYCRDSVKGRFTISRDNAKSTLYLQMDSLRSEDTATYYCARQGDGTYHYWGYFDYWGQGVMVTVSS VL: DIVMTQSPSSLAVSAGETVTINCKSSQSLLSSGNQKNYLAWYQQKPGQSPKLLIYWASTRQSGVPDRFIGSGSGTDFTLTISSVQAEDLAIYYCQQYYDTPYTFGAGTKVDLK",
    "recorded value": 6.45
  },
  {
    "binder": "Recombinant anti-CD98 chimeric antibody chAb1 (antibody, human IgG1, V domains shown) VH: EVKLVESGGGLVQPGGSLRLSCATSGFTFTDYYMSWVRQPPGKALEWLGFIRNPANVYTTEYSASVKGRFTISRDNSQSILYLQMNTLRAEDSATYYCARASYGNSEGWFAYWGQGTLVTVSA VL: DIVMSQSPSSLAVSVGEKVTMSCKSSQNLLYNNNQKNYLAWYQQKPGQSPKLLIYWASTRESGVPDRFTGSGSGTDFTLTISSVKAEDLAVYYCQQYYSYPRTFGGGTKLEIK",
    "recorded value": 1.67
  },
  {
    "binder": "Recombinant anti-CD98 chimeric antibody chAb8 (antibody, human IgG1, V domains shown) VH: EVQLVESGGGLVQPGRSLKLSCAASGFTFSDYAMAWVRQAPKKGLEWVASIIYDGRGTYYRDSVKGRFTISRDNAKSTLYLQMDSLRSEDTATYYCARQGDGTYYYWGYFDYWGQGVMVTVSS VL: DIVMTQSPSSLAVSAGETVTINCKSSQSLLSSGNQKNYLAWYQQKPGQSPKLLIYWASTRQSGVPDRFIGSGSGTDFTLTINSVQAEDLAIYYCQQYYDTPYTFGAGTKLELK",
    "recorded value": 2.61
  }
]
